src = ChEMBL document CHEMBL4765234

Target: Free fatty acid receptor 1 (Homo sapiens)
Sequence (O14842 whole entry): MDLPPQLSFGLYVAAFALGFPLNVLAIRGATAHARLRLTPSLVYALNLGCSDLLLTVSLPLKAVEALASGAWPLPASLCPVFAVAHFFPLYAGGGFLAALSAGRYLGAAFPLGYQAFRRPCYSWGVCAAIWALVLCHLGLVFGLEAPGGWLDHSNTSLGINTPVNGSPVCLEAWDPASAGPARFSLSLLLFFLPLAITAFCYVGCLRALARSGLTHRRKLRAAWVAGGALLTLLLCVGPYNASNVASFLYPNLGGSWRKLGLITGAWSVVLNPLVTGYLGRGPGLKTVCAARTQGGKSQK
Experiment: Agonist activity at human recombinant full length GPR40 overexpressed in human HEK293 cells assessed as increase in inositol phosphate accumulation in presence of terbium cryptate-labeled anti IP1/d2-labelled IP1 measured after 120 mins by HTRF assay
Type: functional, cell-based
pEC50: −log10 of the molar value.
Condition met means recorded pEC50 is 8 or above; Condition not met means it is below 8.

Some solved cases for reference:
1. CC#C[C@@H](CC(=O)O)c1ccc(OCc2ccc(CN3CCC4(C=Cc5ccccc54)CC3)c(C)c2)cc1 : Condition met
2. CC#C[C@@H](CC(=O)O)c1ccc(OCc2ccc(CN3CCC4(CC3)CN(c3ccccc3)c3ccccc34)cc2)cc1 : Condition met
3. O=C(O)CCc1ccc(OCc2ccc(CN3CCC4(C=Cc5ccccc54)CC3)cc2)cc1F : Condition not met

[Q] Please tell me: is the molecule `CC#C[C@@H](CC(=O)O)c1ccc(OCc2sc(CN3CCC4(C=Cc5ccccc54)CC3)nc2C)cc1` at or over 8 in terms of pEC50?
[A] Condition not met

====

Molecular target: Free fatty acid receptor 1 (Mus musculus)
Assay: Agonist activity at Prolink-tagged mouse GPR40 fused with EA-tagged beta-arrestin expressed in human U2OS cells assessed as induction of beta-arrestin recruitment measured after 90 mins by beta-galactosidase based PathHunter assay relative to control
Format: cell-based
Settings: filed as agonist
// Emax lookup, one value per entry
# value in %; strip the unit string

Completed entries (count: 3):
1) CC#C[C@@H](CC(=O)O)c1ccc(OCc2ccc(CN3CCC4(C=Cc5ccccc54)CC3)c(OC)c2)cc1 : 128
2) CC#C[C@@H](CC(=O)O)c1ccc(OCc2cccc(-c3ccc(C(F)(F)F)cc3)c2)cc1 : 137
3) CC#C[C@@H](CC(=O)O)c1ccc(OCc2cc(C)c(CN3CCC4(C=Cc5ccccc54)CC3)s2)cc1 : 122

[Q] Please tell me: Emax of `CC#C[C@@H](CC(=O)O)c1ccc(OCc2ccc(CN3CCC4(C=Cc5ccccc54)CC3)o2)cc1` , system Free fatty acid receptor 1 (Mus musculus)?
[A] 121

[Q] Follow-up entry: `CC#C[C@@H](CC(=O)O)c1ccc(OCc2ccc(CN3CCC4(CCc5ccccc54)CC3)cc2)cc1`
[A] 135

[Q] Follow-up entry: `CC#C[C@@H](CC(=O)O)c1ccc(OCc2ccc(CN3CCC4(CC3)CN(C)c3ccc(OC)cc34)cc2)cc1`
[A] 144

[Q] Follow-up entry: `CC#C[C@H](CC(=O)O)c1ccc(OCc2ccc(CN3CCC4(C=Cc5ccccc54)CC3)cc2)cc1`
[A] 100

[Q] Follow-up entry: `O=C(O)C[C@@H](c1ccc(OCc2ccc3nc(-c4ccccc4)nn3c2)cc1)c1ccon1`
[A] 98

[Q] Follow-up entry: `CC#C[C@@H](CC(=O)O)c1ccc(OCc2ccc(CN3CCC4(CC3)CN(C(C)C)c3ccccc34)cc2)cc1`
[A] 143

====

Assay: AUC in hyperglycemic Balb/c mouse plasma at 5 mg/kg measured upto 60 mins
Format: ADME, organism-based
Parameters: dose 5 mg/kg, time <=60
measure: AUC at 1 h (ng·h/mL)
# value in ng·h/mL; strip the unit string

[Q] Given `CC#C[C@@H](CC(=O)O)c1ccc(OCc2ccc(CN3CCCc4cccc(OC)c43)s2)cc1` , state its recorded AUC at 1 h.
[A] 4930

====

Assay: Apparent volume of distribution in type 2 diabetic mellitus human at 1080 mg, po administered as single dose
Assay type: ADME, organism-based
Settings: in vivo, read-out: Vz/F
measure: Vd/F
Returns: string containing the numeric result and its unit.

[Q] Given `CC#C[C@@H](CC(=O)O)c1ccc(OCc2ccc(CN3CCCc4cccc(OC)c43)s2)cc1` , state its recorded Vd/F.
[A] 358 L

====

Assay: Volume of distribution at steady state in dog at 5 mg/kg, po or 1 mg/kg, iv by LC/MS/MS analysis
Format: ADME, organism-based, Canis lupus familiaris
Details: in vivo, read-out: Vdss
measure: Vd (L/kg)
# value in L/kg; strip the unit string

[Q] Given CC#C[C@@H](CC(=O)O)c1ccc(OCc2ccc(CN3CCC4(C=Cc5ccccc54)CC3)cc2)cc1 [LY2881835] , state its recorded Vd.
[A] 0.8

====

Experiment: AUC in hyperglycemic Balb/c mouse plasma at 29.4 mg/kg measured upto 60 mins
Assay type: ADME, organism-based
Design: dose 29.4 mg/kg, time <=60
measure: AUC at 1 h (ng·h/mL)
# value in ng·h/mL; strip the unit string

[Q] Given `Cc1cc(OCCCS(C)(=O)=O)cc(C)c1-c1cccc(COc2ccc3c(c2)OC[C@H]3CC(=O)O)c1` , state its recorded AUC at 1 h.
[A] 7370

====

Assay: Half-life in mouse at 10 mg/kg, po or 1 mg/kg, iv by LC/MS/MS analysis
Format: ADME, organism-based
Settings: in vivo
measure: half-life (h)
# value in h; strip the unit string

[Q] Given CC#C[C@@H](CC(=O)O)c1ccc(OCc2ccc(CN3CCC4(C=Cc5ccccc54)CC3)cc2)cc1 [LY2881835] , state its recorded half-life.
[A] 2.1

====

Biological target: Free fatty acid receptor 1 (Homo sapiens)
Experiment: Agonist activity at human recombinant full length GPR40 overexpressed in human HEK293 cells assessed as increase in inositol phosphate accumulation in presence of terbium cryptate-labeled anti IP1/d2-labelled IP1 measured after 120 mins by HTRF assay relative to AMG837
Format: functional, cell-based
Details: filed as agonist
measure: Emax (%)
# value in %; strip the unit string

Completed entries (count: 2):
1) CC#C[C@@H](CC(=O)O)c1ccc(OCc2ccc(CN3CCC4(CCc5ccccc54)CC3)s2)cc1 : 132
2) CC#C[C@@H](CC(=O)O)c1ccc(OCc2cnc(CN3CCC4(C=Cc5ccccc54)CC3)s2)cc1 : 129

[Q] Given `CC#C[C@@H](CC(=O)O)c1ccc(OCc2ccc(CN3CCC4(CCc5ccccc54)CC3)cc2)cc1` , state its recorded Emax.
[A] 249

[Q] Follow-up entry: `CC#C[C@@H](CC(=O)O)c1ccc(OCc2ccc(CN3CCC4(CC3)CN(C)c3ccc(OC)cc34)cc2)cc1`
[A] 311

[Q] Follow-up entry: `CC#C[C@@H](CC(=O)O)c1ccc(OCc2ccc(CN3CCC4(C=Cc5ccccc54)CC3)c(C)c2)cc1`
[A] 206

[Q] Follow-up entry: `O=C(O)C[C@@H](c1ccc(OCc2ccc3nc(-c4ccccc4)nn3c2)cc1)c1ccon1`
[A] 124

[Q] Follow-up entry: `CC#C[C@@H](CC(=O)O)c1ccc(OCc2ccc(CN3CCC4(CC3)CN(C(C)C)c3ccccc34)cc2)cc1`
[A] 343

====

Test: Tmax in type 2 diabetic mellitus human at 1080 mg, po administered as single dose
Format: ADME, organism-based
Conditions: in vivo
measure: Tmax (h)
# value in h; strip the unit string

[Q] Given `CC#C[C@@H](CC(=O)O)c1ccc(OCc2ccc(CN3CCCc4cccc(OC)c43)s2)cc1` , state its recorded Tmax.
[A] 4

====

// TIME lookup, one value per entry
Molecular target: Free fatty acid receptor 1 (Homo sapiens)
Test: Displacement of [3H]-(S)-2-(6-((2',6'-dimethyl-4'-(3-(methylsulfonyl)propoxy)biphenyl-3-yl)methoxy)-2,3-dihydrobenzofuran-3-yl)acetic acid from human recombinant full-length GPR40 expressed in human HEK293 cell membrane assessed as residence time by radioligand competitive assay
Assay type: cell membranes
Settings: filed as agonist
# value in h; strip the unit string

Completed entries (count: 6):
1. CC#C[C@@H](CC(=O)O)c1ccc(OCc2ccc(CN3CCC4(CC3)CN(C)c3ccccc34)cc2)cc1 : 0.783
2. O=C(O)CCc1ccc(OCc2ccc(CN3CCC4(C=Cc5ccccc54)CC3)cc2)cc1F : 0.2
3. CC#C[C@@H](CC(=O)O)c1ccc(OCc2ccc(CN3CCC4(C=Cc5ccccc54)CC3)cc2)cc1 : 2
4. O=C(O)C[C@@H](c1ccc(OCc2ccc3nc(-c4ccccc4)nn3c2)cc1)c1ccon1 : 0.367
5. CC#C[C@@H](CC(=O)O)c1ccc(OCc2ccc(CN3CCC4(C=Cc5ccccc54)CC3)s2)cc1 : 0.667
6. CC#C[C@@H](CC(=O)O)c1ccc(OCc2ccc(CN3CCC4(CCc5ccccc54)CC3)cc2)cc1 : 1.1

Query compound follows.
[Q] Given `CC#C[C@@H](CC(=O)O)c1ccc(OCc2ccc(CN3CCC4(CCc5ccccc54)CC3)s2)cc1` , state its recorded TIME.
[A] 1.03

====

Target: UniProt:O14842
Assay: Agonist activity at human recombinant full-length Prolink-tagged GPR40 fused with EA-tagged beta-arrestin expressed in human HEK293 cells assessed as induction of beta-arrestin recruitment measured after 90 mins by beta-galactosidase based PathHunter assay
Assay type: cell-based
pEC50: −log10 of the molar value.
Satisfied means recorded pEC50 is 8 or above; Not satisfied means it is below 8.

Some solved cases for reference:
1) O=C(O)CCc1ccc(OCc2ccc(CN3CCC4(C=Cc5ccccc54)CC3)cc2)cc1F : Not satisfied
2) CC#C[C@@H](CC(=O)O)c1ccc(OCc2ccc(CN3CCC4(CC3)CN(C)c3ccc(OC)cc34)cc2)cc1 : Not satisfied
3) CC#C[C@@H](CC(=O)O)c1ccc(OCc2ccc(CN3CCC4(CC3)CC(=O)c3ccccc3O4)cc2)cc1 : Not satisfied
4) CC#C[C@@H](CC(=O)O)c1ccc(OCc2ccc(CN3CCC4(CC3)CN(C)c3ccc(C)cc34)cc2)cc1 : Not satisfied
5) O=C(O)CCc1ccc(OCc2ccc(CN3CCC4(C=Cc5ccccc54)CC3)cc2)cc1Cl : Not satisfied
6) CC#C[C@@H](CC(=O)O)c1ccc(OCc2ccc(CN3CCC4(CC3)CN(C)c3ccccc34)cc2)cc1 : Not satisfied
7) CC#C[C@@H](CC(=O)O)c1ccc(OCc2ncc(CN3CCC4(C=Cc5ccccc54)CC3)s2)cc1 : Not satisfied
8) CC#C[C@@H](CC(=O)O)c1ccc(OCc2ccc(CN3CCC4(C=Cc5ccccc54)CC3)c(C(F)(F)F)c2)cc1 : Satisfied

[Q] Please tell me: is the compound `CC#C[C@@H](CC(=O)O)c1ccc(OCc2ccc(CN3CCC4(C=Cc5ccccc54)CC3)s2)cc1` at or over 8 in terms of pEC50?
[A] Satisfied

[Q] Follow-up entry: `CC#C[C@H](CC(=O)O)c1ccc(OCc2ccc(CN3CCC4(C=Cc5ccccc54)CC3)cc2)cc1F`
[A] Not satisfied

[Q] Follow-up entry: `O=C(O)C[C@@H](c1ccc(OCc2ccc3nc(-c4ccccc4)nn3c2)cc1)c1ccon1`
[A] Not satisfied

[Q] Follow-up entry: `CC#C[C@@H](CC(=O)O)c1ccc(OCc2cc(C)c(CN3CCC4(C=Cc5ccccc54)CC3)s2)cc1`
[A] Satisfied

[Q] Follow-up entry: `CC#C[C@@H](CC(=O)O)c1ccc(OCc2ccc(CN3CCC4(CC3)CN(C)c3c(Cl)cccc34)cc2)cc1`
[A] Satisfied
